# CLint scaled at 5 μM annotations
test: Compound stability in human liver microsomes; format: in vitro ADME; settings: pH 7.4; human liver microsomes; in vivo CLint extrapolated
The response must be a number in mL/min/kg with no trailing unit.

Worked cases, answers included:
COc1ncc(-c2ccn3ncc(C#N)c3c2)cc1NS(=O)(=O)c1ccc(F)cc1F :: 0.72
COc1ncc(-c2ccn3ncc(C#CCO)c3n2)cc1NS(=O)(=O)c1ccc(F)cc1F :: 2.45
COc1ncc(-c2ccn3ncc(C#CC(C)(C)O)c3c2)cc1NS(=O)(=O)c1ccc(F)cc1F :: 0.22
CC#Cc1cnn2ccc(-c3cnc(OC)c(NS(=O)(=O)c4ccc(F)cc4F)c3)nc12 :: 0.52
COc1ncc(-c2ccn3ncc(C#CC(C)O)c3n2)cc1NS(=O)(=O)c1ccc(F)cc1F (stereo not shown) :: 5.74
COc1ncc(-c2ccn3ncc(C#CCO)c3c2)cc1NS(=O)(=O)c1ccc(F)cc1F :: 5.81

Looking for the measured CLint scaled at 5 μM of COc1ncc(-c2ccn3ncc(C#N)c3c2)cc1NS(=O)(=O)CC(F)(F)F , can you help?
2.03

The reported measurements were obtained from patent US9573953B2.
